This listing pairs binders with measured koff.
EXPERIMENTAL TARGET: T1, rat α-CGRP (1-37) (rat, C-terminal amide; N-terminal biotin when captured on the SA chip)
T1 construct: also called rat α (1-37); α-rat
T1 peptide: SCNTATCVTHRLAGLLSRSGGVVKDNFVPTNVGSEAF
ASSAY NOTES: Biacore, 37°C, Fab over CGRP on SA chip
Reply numerically in s⁻¹, unit not repeated.

G1 variant M52 Fab (Fab, V domains shown, Fab; constant domains as m1; printed L561 read as L56I) VH: EVQLVESGGGLVQPGGSLRLSCAASGFTFSNYWISWVRQAPGKGLEWVAEIRSKSDNAATHYAEAVKGRFTISRDNAKNSLYLQMNSLRAEDTAVYYCTVYFDYGLAIQNYWGQGTLVTVSS VL: EIVLTQSPATLSLSPGERATLSCKASKNVTTYVSWYQQKPGQAPRLLIYGASNRYIGIPARFSGSGSGTDFTLTISSLEPEDFAVYYCSQSYNYPYTFGQGTKLEIK; 0.00229

# input for lookup
(Q) # query: koff of entry G1 variant M31 Fab (Fab, V domains shown, Fab; constant domains as m1) VH: EVQLVESGGGLVQPGGSLRLSCAASGFTFSNYWISWVRQAPGKGLEWVAEIRSKSDGSATHYAEAVKGRFTISRDNAKNSLYLQMNSLRAEDTAVYYCTVYFDYGLAIQNYWGQGTLVTVSS VL: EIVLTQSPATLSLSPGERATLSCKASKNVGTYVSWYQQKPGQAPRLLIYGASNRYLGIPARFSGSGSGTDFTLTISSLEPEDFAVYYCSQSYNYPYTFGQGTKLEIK
(A) 0.00361
